- Target or system: SaCas9 (Staphylococcus aureus)
- Sequence (J7RUA5 whole entry): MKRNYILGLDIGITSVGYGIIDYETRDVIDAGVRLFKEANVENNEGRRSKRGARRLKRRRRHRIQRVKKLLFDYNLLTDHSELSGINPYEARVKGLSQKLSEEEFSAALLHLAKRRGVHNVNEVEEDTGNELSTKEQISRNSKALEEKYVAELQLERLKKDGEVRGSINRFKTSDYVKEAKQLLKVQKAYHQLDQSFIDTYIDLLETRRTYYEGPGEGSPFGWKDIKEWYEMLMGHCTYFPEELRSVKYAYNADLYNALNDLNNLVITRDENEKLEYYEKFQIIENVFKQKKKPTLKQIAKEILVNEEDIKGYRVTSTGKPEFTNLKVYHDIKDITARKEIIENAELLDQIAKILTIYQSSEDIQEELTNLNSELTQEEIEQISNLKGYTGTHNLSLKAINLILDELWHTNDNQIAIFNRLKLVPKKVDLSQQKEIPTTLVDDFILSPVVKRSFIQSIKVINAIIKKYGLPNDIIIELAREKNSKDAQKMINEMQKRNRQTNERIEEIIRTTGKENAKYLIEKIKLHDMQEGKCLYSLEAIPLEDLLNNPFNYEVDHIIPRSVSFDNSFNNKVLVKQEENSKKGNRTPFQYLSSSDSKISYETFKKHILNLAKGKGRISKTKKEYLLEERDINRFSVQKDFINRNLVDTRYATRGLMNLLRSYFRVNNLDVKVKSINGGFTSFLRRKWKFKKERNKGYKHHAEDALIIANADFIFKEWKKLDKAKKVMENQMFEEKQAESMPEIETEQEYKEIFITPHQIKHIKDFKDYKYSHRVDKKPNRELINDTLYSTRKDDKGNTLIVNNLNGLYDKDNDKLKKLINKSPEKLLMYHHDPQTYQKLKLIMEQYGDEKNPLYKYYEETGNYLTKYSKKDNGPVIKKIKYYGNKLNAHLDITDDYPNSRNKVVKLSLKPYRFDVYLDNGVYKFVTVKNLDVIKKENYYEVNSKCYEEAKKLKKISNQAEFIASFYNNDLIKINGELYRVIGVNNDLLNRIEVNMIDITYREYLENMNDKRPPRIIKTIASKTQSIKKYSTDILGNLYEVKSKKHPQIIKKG
- Method notes: Strand displacement assay, SaCas9 primary screen
- Type: biochemical
- Recorded conditions: SaCas9 primary screen, weaker potential hits, replicate 1
Friendly reminder: Normalized Zscore Rep 1 below 0.3 is true (1), at or above is false (0).

Input Cc1cc(-c2nn3c(COc4ccccc4)nnc3s2)no1 ; condition: Normalized Zscore Rep 1 strictly below 0.3. Does it hold?
true (1)

Input O=c1oc2c(O)c(O)ccc2c2c1CCC2 ; condition: Normalized Zscore Rep 1 strictly below 0.3. Does it hold?
false (0)

Input Cc1cccc(NC(=O)C2CCCN(c3ccc(-c4ccccc4)nn3)C2)c1 (centres unmarked) ; condition: Normalized Zscore Rep 1 strictly below 0.3. Does it hold?
true (1)

Input COc1ccc(-c2[nH]nc3nc(-c4ccc(O)c(O)c4)cc(C(=O)O)c23)cc1 ; condition: Normalized Zscore Rep 1 strictly below 0.3. Does it hold?
false (0)

Input Cc1ccccc1OCc1nn2c(C(C)C)nnc2s1 ; condition: Normalized Zscore Rep 1 strictly below 0.3. Does it hold?
true (1)

Input Cc1n[nH]c2c1C(c1ccc(O)c(O)c1)CC(=O)N2 (centres unmarked) ; condition: Normalized Zscore Rep 1 strictly below 0.3. Does it hold?
false (0)

Input Cc1cc(C)c(S(=O)(=O)Nc2cnc(N3CCCC3)c(C(=O)O)c2)cc1C ; condition: Normalized Zscore Rep 1 strictly below 0.3. Does it hold?
false (0)

Input Cn1c(=O)c2c(-c3ccccc3)n3c(c2n(C)c1=O)C(c1ccc(O)c(O)c1)Nc1ccccc1-3 (centres unmarked) ; condition: Normalized Zscore Rep 1 strictly below 0.3. Does it hold?
true (1)

Input O=c1oc2cc(OCc3nnn[nH]3)c(Cl)cc2c2c1CCC2 ; condition: Normalized Zscore Rep 1 strictly below 0.3. Does it hold?
true (1)

Input CCS(=O)(=O)Nc1cnc(N(C)CCCc2c(C)nn(C)c2C)c(C(=O)O)c1 ; condition: Normalized Zscore Rep 1 strictly below 0.3. Does it hold?
true (1)

Input Cc1occc1-c1nnc2sc(COc3ccc(Br)cc3)nn12 ; condition: Normalized Zscore Rep 1 strictly below 0.3. Does it hold?
true (1)

Input Cc1ccc(C)n1CCN1CCN(S(=O)(=O)c2ccccc2)CC1 ; condition: Normalized Zscore Rep 1 strictly below 0.3. Does it hold?
true (1)

Input CS(=O)(=O)Nc1cnc(N2CCC(C(N)=O)(N3CCCCC3)CC2)c(C(=O)O)c1 ; condition: Normalized Zscore Rep 1 strictly below 0.3. Does it hold?
true (1)

Input Cc1cccc(Cn2c(SCC(O)CO)nc3c2c(=O)[nH]c(=O)n3C)c1 (centres unmarked) ; condition: Normalized Zscore Rep 1 strictly below 0.3. Does it hold?
true (1)

Input Cc1ccccc1OCc1nn2c(C(C)(C)C)nnc2s1 ; condition: Normalized Zscore Rep 1 strictly below 0.3. Does it hold?
true (1)

Input COc1ccc2cc3c(N)nn(C(=O)c4ccncc4)c3nc2c1 ; condition: Normalized Zscore Rep 1 strictly below 0.3. Does it hold?
true (1)

Input CCN(Cc1ccccc1)c1ccc(NS(=O)(=O)c2cc(OC)ccc2OC)cc1C(=O)O ; condition: Normalized Zscore Rep 1 strictly below 0.3. Does it hold?
true (1)

Input NC(=O)c1sc(=S)n(Cc2ccccc2)c1N ; condition: Normalized Zscore Rep 1 strictly below 0.3. Does it hold?
true (1)

Input CC1CCC(NC(=O)C2(C)Cn3c(cc4occc43)C(=O)N2CCN(C)C2CCCCC2)CC1 (centres unmarked) ; condition: Normalized Zscore Rep 1 strictly below 0.3. Does it hold?
true (1)

Input Cn1nc(-c2ccc(Cl)cc2)c2cc(C(=O)O)sc21 ; condition: Normalized Zscore Rep 1 strictly below 0.3. Does it hold?
true (1)

Input CN(C)S(=O)(=O)Nc1ccc(N2CCC(C(N)=O)(N3CCCCC3)CC2)c(C(=O)O)c1 ; condition: Normalized Zscore Rep 1 strictly below 0.3. Does it hold?
true (1)

Input COc1ccc(C2CC(=O)C3=C(C2)Nc2onc(C)c2C3c2ccc(O)c(O)c2)cc1OC (centres unmarked) ; condition: Normalized Zscore Rep 1 strictly below 0.3. Does it hold?
true (1)

Input CCN(CC)c1ncc(NS(=O)(=O)c2cc(C)c(C)cc2C)cc1C(=O)O ; condition: Normalized Zscore Rep 1 strictly below 0.3. Does it hold?
true (1)

Input CS(=O)(=O)Nc1cnc(N2CCC(CCN3CCOCC3)CC2)c(C(=O)O)c1 ; condition: Normalized Zscore Rep 1 strictly below 0.3. Does it hold?
false (0)

Input CN1C(C(=O)Nc2sc3c(c2C(N)=O)CCCC3)=CC(c2ccc(F)cc2)=NS1(=O)=O ; condition: Normalized Zscore Rep 1 strictly below 0.3. Does it hold?
true (1)

Input CCCCN(CC)c1ncc(NS(=O)(=O)CC)cc1C(=O)O ; condition: Normalized Zscore Rep 1 strictly below 0.3. Does it hold?
true (1)

Input Cc1nnc(NC(=O)CSc2ccc3nnc(-c4cccc(F)c4)n3n2)s1 ; condition: Normalized Zscore Rep 1 strictly below 0.3. Does it hold?
false (0)

Input CCN(Cc1ccccc1)c1ccc(NS(=O)(=O)CC)cc1C(=O)O ; condition: Normalized Zscore Rep 1 strictly below 0.3. Does it hold?
true (1)

Input Cc1cc(C)c(S(=O)(=O)Nc2cnc(N3CCCC3)c(C(=O)O)c2)c(C)c1 ; condition: Normalized Zscore Rep 1 strictly below 0.3. Does it hold?
true (1)

Input NC(=O)c1sc(=S)n2c1[nH]c(=O)c1ccc(Cl)cc12 ; condition: Normalized Zscore Rep 1 strictly below 0.3. Does it hold?
true (1)

Input Cc1sc2c(c1C)CSC(C(=O)Nc1c(C)n(C)n(-c3ccccc3)c1=O)=C2 ; condition: Normalized Zscore Rep 1 strictly below 0.3. Does it hold?
true (1)

Input COCCc1nnc2n1N=C(c1ccc(Cl)cc1)CS2 ; condition: Normalized Zscore Rep 1 strictly below 0.3. Does it hold?
true (1)

Input Cc1cc(-c2nn3c(C(C)C)nnc3s2)no1 ; condition: Normalized Zscore Rep 1 strictly below 0.3. Does it hold?
true (1)

Input CN(C)S(=O)(=O)Nc1ccc(N2CCN(CC(=O)N3CCCC3)CC2)c(C(=O)O)c1 ; condition: Normalized Zscore Rep 1 strictly below 0.3. Does it hold?
true (1)

----------
For each entry below, report its Normalized Z score 1 value.
- Target or system: UniProt Q99ZW2
- Method notes: Strand displacement assay (SDA) / cumulative activity assay (CAA), SpCas9 primary screen
- Format: biochemical
- Recorded conditions: Primary Screen (150 min); replicate 1
The reply should be a number, written without any unit.

Look up and report measured Normalized Z score 1 (UniProt Q99ZW2) for the following compound: NC1=C(c2nc3ccccc3s2)C(=O)CN1N=Cc1ccc(-c2ccc(S(=O)(=O)Nc3ncccn3)cc2)o1
0.61

Look up and report measured Normalized Z score 1 (UniProt Q99ZW2) for the following compound: Oc1c(C(c2cccs2)N2CCCCC2)ccc2cccnc12 (centres unmarked)
0.70

Look up and report measured Normalized Z score 1 (UniProt Q99ZW2) for the following compound: CCCCC(=O)Nc1ccc(N2CCC(C(N)=O)(N3CCCCC3)CC2)c(C(=O)O)c1
0.07

Look up and report measured Normalized Z score 1 (UniProt Q99ZW2) for the following compound: Cc1ccc(-c2nc(CN3CCCC(C(=O)Nc4cc(C)ccc4O)C3)no2)cc1 (centres unmarked)
0.10

Look up and report measured Normalized Z score 1 (UniProt Q99ZW2) for the following compound: O=C(CSc1nnc2ccccn12)Nc1cc(C(=O)O)cc(C(=O)O)c1
0.10

Look up and report measured Normalized Z score 1 (UniProt Q99ZW2) for the following compound: Cc1ccc(Cl)cc1NC(=O)C1=NCCN1
0.08

Look up and report measured Normalized Z score 1 (UniProt Q99ZW2) for the following compound: Cc1ncc(-c2ccnc(Nc3ccc(S(C)(=O)=O)cc3)n2)n1C(C)C
0.43

Look up and report measured Normalized Z score 1 (UniProt Q99ZW2) for the following compound: Cn1nc(-c2ccccc2F)c2cc(C(=O)Oc3ccc4cnccc4c3)sc21
0.06

----------
- Target or system: SpCas9 (Streptococcus pyogenes serotype M1)
- Sequence (Q99ZW2 whole entry): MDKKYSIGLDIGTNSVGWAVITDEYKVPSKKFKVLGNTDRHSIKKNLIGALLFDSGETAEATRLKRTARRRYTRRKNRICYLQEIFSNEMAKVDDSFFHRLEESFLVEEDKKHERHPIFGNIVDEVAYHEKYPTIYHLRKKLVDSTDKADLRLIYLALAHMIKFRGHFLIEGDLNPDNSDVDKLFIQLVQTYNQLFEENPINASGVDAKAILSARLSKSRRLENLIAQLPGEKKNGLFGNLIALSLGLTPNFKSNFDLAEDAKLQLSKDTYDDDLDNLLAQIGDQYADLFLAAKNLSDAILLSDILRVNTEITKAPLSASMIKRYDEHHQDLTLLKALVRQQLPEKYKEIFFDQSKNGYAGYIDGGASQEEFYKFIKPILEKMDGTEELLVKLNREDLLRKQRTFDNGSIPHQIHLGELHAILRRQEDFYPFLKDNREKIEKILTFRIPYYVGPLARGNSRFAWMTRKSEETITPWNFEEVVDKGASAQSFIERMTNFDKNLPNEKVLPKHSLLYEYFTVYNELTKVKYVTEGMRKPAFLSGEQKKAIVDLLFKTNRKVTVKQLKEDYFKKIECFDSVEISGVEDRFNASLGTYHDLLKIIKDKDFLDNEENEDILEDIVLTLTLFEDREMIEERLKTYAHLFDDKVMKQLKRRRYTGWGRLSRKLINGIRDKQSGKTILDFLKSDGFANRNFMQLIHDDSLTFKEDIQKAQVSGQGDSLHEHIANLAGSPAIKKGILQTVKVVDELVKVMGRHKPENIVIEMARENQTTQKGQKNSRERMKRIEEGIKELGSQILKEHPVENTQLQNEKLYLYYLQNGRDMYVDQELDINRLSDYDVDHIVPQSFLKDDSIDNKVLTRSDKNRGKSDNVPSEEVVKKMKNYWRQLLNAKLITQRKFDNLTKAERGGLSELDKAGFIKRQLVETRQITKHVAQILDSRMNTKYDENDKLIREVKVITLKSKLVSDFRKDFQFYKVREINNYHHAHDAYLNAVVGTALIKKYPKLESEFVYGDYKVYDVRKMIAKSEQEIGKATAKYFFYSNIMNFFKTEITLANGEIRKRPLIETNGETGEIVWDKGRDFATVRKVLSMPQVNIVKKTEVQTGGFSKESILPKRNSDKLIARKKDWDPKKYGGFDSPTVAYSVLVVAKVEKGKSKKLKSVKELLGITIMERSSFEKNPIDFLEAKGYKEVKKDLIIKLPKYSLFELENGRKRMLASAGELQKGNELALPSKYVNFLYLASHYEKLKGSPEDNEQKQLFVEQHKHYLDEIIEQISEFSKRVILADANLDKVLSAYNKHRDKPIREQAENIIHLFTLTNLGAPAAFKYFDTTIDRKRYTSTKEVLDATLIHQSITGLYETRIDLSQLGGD
- Method notes: eGFP disruption assay, SpCas9, U2OS.eGFP.PEST cells
- Format: cell-based
- Recorded conditions: replicate 2
- Text: In some embodiments, the secondary assay may be an EGFP disruption assay. In such assay, a quantitative human cell-based reporter assay that enables rapid quantitation of targeted nuclease activities is used to characterize off-target cleavage of Cas9-based RNA guided endonucleases. […] Primary and secondary screening. […] In this assay, any compound that inhibited SpCas9 would rescue the loss of eGFP fluorescence. […]
Friendly reminder: Normalized Z rep2 below -0.2 is met, at or above is not met.

Input COc1ccc(Cc2nn3c(-c4cccnc4)nnc3s2)cc1OC ; condition: Normalized Z rep2 strictly below -0.2. Does it hold?
not met

Input CNS(=O)(=O)c1ccc2nc(NC(=O)c3ccc(N4C(=O)CCC4=O)cc3)sc2c1 ; condition: Normalized Z rep2 strictly below -0.2. Does it hold?
met

Input Fc1ccc(-c2nn3c(-c4cnccn4)nnc3s2)cc1Br ; condition: Normalized Z rep2 strictly below -0.2. Does it hold?
met

Input Cc1nn(-c2ccccc2)c(C)c1CCc1nn2c(-c3ccncc3)nnc2s1 ; condition: Normalized Z rep2 strictly below -0.2. Does it hold?
not met

Input Brc1ccc(OCc2nn3c(-c4ccccn4)nnc3s2)cc1 ; condition: Normalized Z rep2 strictly below -0.2. Does it hold?
not met

Input Cc1nn(-c2ccccc2)c(C)c1CCc1nn2c(-c3cccc(F)c3)nnc2s1 ; condition: Normalized Z rep2 strictly below -0.2. Does it hold?
not met

Input COc1ccc(-c2nn3c(-c4ccc5ccccc5n4)nnc3s2)cc1OC ; condition: Normalized Z rep2 strictly below -0.2. Does it hold?
not met

src = patent US20240115557A1
